Ki for assorted compounds
- tested.on: human glucocorticoid receptor (Homo sapiens, UniProt P04150)
- Construct: purified human recombinant full-length glucocorticoid receptor (2 nM); purchased Invitrogen Part # 2893
- assay: Glucocorticoid Receptor Binding Assay (I), fluorescence polarization competitor kit (Fluormone GS Red)
- condition.description: purified human recombinant full-length GR
recorded.endpoint: Ki (nM)

# compound, tested.on, recorded.endpoint, assay.value
measured = [
    ("Cc1cc(C)c(S(=O)(=O)NCC(C)(C)C(CC(C)C)c2ccc3c(cnn3-c3ccc(F)cc3)c2)c(C)c1 (stereo not shown) [Example 81]", "human glucocorticoid receptor (Homo sapiens, UniProt P04150)", "Ki", 8.7),
    ("CC(CNC(=O)NC(C)(C)C)C(c1ccccc1)c1ccc2c(cnn2-c2ccc(F)cc2)c1 (single isomer, unassigned) [Example 97A]", "human glucocorticoid receptor (Homo sapiens, UniProt P04150)", "Ki", 4),
    ("CCC(CNS(=O)(=O)CC(F)(F)F)C(c1ccccc1)c1ccc2c(cnn2-c2ccc(F)cc2)c1 (stereo not shown) [Example 98]", "human glucocorticoid receptor (Homo sapiens, UniProt P04150)", "Ki", 3.7),
    ("Cc1cc(C(C)(C)NC(=O)NCC(C)(C)C(CC(C)C)c2ccc3c(cnn3-c3ccc(F)cc3)c2)ccn1 (stereo not shown) [Example 53]", "human glucocorticoid receptor (Homo sapiens, UniProt P04150)", "Ki", 1.8),
    ("CC(CNS(=O)(=O)CC(F)(F)F)C(c1ccccc1)c1ccc2c(cnn2-c2ccc(F)cc2)c1 (single isomer, unassigned) [Example 91B]", "human glucocorticoid receptor (Homo sapiens, UniProt P04150)", "Ki", 15),
    ("Cc1ccc(C(C)(C)NC(=O)NCC(C)(C)C(CC(C)C)c2ccc3c(cnn3-c3ccc(F)cc3)c2)c(C)n1 (stereo not shown) [Example 52]", "human glucocorticoid receptor (Homo sapiens, UniProt P04150)", "Ki", 2.3),
    ("CC(C)CC(c1ccc2c(cnn2-c2ccc(F)cc2)c1)C(C)(C)CNC(=O)N[C@@H](C)CO (stereo partly shown) [Example 47]", "human glucocorticoid receptor (Homo sapiens, UniProt P04150)", "Ki", 1.3),
]

###

A collection of compounds and their measured Ki
- tested.on: human glucocorticoid receptor (Homo sapiens)
- Construct: purified human recombinant full-length glucocorticoid receptor (2 nM); purchased Invitrogen Part # 2893
- assay: Glucocorticoid Receptor Binding Assay (I), fluorescence polarization competitor kit (Fluormone GS Red)
- condition.description: purified human recombinant full-length GR

# compound, unit.spec, Ki
data = [
    ("CC(C)CC(c1ccc2c(cnn2-c2ccc(F)cc2)c1)C(C)(C)CNC(=O)NC1CCC1 (stereo not shown) [Example 27]", "nM", 4.6),
    ("CC(C)CC(c1ccc2c(cnn2-c2ccc(F)cc2)c1)C(C)(C)CNC(=O)NC(C)(C)CO (stereo not shown) [Example 29]", "nM", 2.5),
    ("CC(C)CC(c1ccc2c(cnn2-c2ccc(F)cc2)c1)C(C)(C)CNC(=O)N[C@@H]1CCc2ccccc21 (stereo partly shown) [Example 71B]", "nM", 6.5),
    ("C=CCC(c1ccc2c(cnn2-c2ccc(F)cc2)c1)C(C)(C)CNC(=O)NC(C)(C)C (stereo not shown) [Example 105]", "nM", 1.7),
]

###

- tested.on: human full-length glucocorticoid receptor (Homo sapiens)
- Construct: recombinantly expressed human full-length glucocorticoid receptor; purchased PanVera Co., Madison, Wis; P2816
- Sequence (P04150 1-777): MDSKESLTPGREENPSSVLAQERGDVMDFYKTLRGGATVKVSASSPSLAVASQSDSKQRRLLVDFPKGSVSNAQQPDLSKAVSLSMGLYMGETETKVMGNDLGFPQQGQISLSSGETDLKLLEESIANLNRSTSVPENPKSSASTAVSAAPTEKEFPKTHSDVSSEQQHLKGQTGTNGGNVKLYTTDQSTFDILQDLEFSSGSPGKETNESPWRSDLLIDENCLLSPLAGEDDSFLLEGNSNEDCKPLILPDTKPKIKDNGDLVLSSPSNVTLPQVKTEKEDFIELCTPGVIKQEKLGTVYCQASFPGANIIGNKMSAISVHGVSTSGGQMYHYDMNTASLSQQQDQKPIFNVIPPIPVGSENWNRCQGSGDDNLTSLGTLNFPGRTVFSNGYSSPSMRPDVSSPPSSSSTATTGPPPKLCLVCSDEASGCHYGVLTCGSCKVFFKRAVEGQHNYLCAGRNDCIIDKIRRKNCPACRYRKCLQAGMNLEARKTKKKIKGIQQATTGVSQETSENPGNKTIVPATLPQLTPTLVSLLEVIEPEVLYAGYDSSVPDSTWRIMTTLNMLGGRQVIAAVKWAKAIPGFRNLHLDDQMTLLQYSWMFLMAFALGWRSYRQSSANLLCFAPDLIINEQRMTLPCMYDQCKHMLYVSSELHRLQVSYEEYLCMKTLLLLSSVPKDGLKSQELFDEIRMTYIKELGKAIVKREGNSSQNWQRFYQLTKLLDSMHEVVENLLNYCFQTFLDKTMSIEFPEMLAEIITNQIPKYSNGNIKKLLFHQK
- assay: Glucocorticoid Receptor Binding Assay (II), fluorescence polarization competitor kit (Fluormone GS1)
- condition.description: cell lysate with recombinant human full-length GR
# Ki values compiled below
recorded.endpoint: Ki (nM)

# molecule, assay.value
rows = [
    ("CC(O)C(C)(C)C(c1ccccc1)c1ccc2c(cnn2-c2ccc(F)cc2)c1 (mixture of isomers)", 26),
    ("O=S(=O)(CC(F)(F)F)NCC1CC1(c1ccccc1)c1ccc2c(cnn2-c2ccc(F)cc2)c1 (stereo not shown)", 43),
    ("CC(C)(C(c1ccccc1)c1ccc2c(cnn2-c2ccc(F)cc2)c1)C(O)(c1cccs1)C(F)(F)F (stereo not shown)", 252),
    ("O=C(CC(F)(F)F)NCCC(c1ccccc1)c1ccc2c(cnn2-c2ccc(F)cc2)c1 (stereo not shown)", 12),
]

###

We begin with a simple list: items and their reported Ki.
- tested.on: human glucocorticoid receptor (Homo sapiens)
- Construct: purified human recombinant full-length glucocorticoid receptor (2 nM); purchased Invitrogen Part # 2893
- Sequence (P04150 1-777): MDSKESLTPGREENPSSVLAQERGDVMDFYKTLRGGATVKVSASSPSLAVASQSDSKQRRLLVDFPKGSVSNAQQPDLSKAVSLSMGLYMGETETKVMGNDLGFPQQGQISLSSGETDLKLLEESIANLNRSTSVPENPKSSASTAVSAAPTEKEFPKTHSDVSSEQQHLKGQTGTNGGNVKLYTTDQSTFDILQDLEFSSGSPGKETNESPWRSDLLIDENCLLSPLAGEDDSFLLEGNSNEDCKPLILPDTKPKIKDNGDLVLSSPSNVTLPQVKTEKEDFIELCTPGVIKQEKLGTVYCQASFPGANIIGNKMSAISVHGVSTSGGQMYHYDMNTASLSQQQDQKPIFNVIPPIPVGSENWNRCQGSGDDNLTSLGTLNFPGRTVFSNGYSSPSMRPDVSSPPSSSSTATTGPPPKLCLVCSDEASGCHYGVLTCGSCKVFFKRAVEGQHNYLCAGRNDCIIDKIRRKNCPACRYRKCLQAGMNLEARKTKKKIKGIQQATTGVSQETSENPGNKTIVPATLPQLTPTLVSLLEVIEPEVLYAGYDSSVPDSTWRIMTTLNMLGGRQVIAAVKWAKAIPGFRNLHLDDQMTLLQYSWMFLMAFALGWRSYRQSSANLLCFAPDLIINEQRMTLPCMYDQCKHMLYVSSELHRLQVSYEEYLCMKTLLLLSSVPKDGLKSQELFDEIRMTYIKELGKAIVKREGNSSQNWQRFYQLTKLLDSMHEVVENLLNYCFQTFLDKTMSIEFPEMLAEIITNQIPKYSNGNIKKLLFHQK
- assay: Glucocorticoid Receptor Binding Assay (I), fluorescence polarization competitor kit (Fluormone GS Red)
- condition.description: purified human recombinant full-length GR
recorded.endpoint: Ki (nM)

# molecule, recorded.endpoint, assay.value
records = [
    ("CC(C)CC(c1ccc2c(cnn2-c2ccc(F)cc2)c1)C(C)(C)CNC(=O)NC(C)(C)c1ccccc1 (stereo not drawn)", "Ki", 3.1),
    ("CC(C)CC(c1ccc2c(cnn2-c2ccc(F)cc2)c1)C(C)(C)CNC(=O)NCC(C)(C)C (stereo not drawn)", "Ki", 2.3),
    ("CC(C)CC(c1ccc2c(cnn2-c2ccc(F)cc2)c1)C(C)(C)CNC(=O)NC(C)(C)c1ccnc(C(C)(C)C)c1 (stereo not drawn)", "Ki", 17),
    ("CC(CNC(=O)CC(F)(F)F)C(c1ccccc1)c1ccc2c(cnn2-c2ccc(F)cc2)c1 (single isomer, unassigned) [Example 90B]", "Ki", 21),
    ("CC(C)CC(c1ccc2c(cnn2-c2ccc(F)cc2)c1)C(C)(C)CNC(=O)N[C@@H](C)C(C)(C)C (stereo partly drawn)", "Ki", 7.4),
    ("CC(C)CC(c1ccc2c(cnn2-c2ccc(F)cc2)c1)C(C)(C)CNC(=O)NC(C)(C)CC(=O)O (stereo not drawn)", "Ki", 3),
    ("CC(C)(CNS(=O)(=O)CC(F)(F)F)[C@@H](c1ccccc1)c1ccc2c(cnn2-c2ccc(F)cc2)c1", "Ki", 1.1),
    ("CC(CNS(=O)(=O)CCC(F)(F)F)C(c1ccccc1)c1ccc2c(cnn2-c2ccc(F)cc2)c1 (stereo not drawn)", "Ki", 1.6),
    ("CC(CNS(=O)(=O)C(C)C)C(c1ccccc1)c1ccc2c(cnn2-c2ccc(F)cc2)c1 (stereo not drawn)", "Ki", 0.73),
    ("CC(C)CC(c1ccc2c(cnn2-c2ccc(F)cc2)c1)C(C)(C)CNC(=O)NC(c1ccccc1)c1ccccc1 (stereo not drawn)", "Ki", 13),
    ("CC(C)CC(c1ccc2c(cnn2-c2ccc(F)cc2)c1)C(C)(C)CNC(=O)C(=O)C(C)(C)C (stereo not drawn)", "Ki", 5.6),
    ("CC(C)CC(c1ccc2c(cnn2-c2ccc(F)cc2)c1)C(C)(C)CNC(=O)NC(C)(C)C (stereo not drawn)", "Ki", 4.2),
    ("CC(C)(CNC(=O)Nc1ccccn1)C(C)(C)c1ccc2c(cnn2-c2ccc(F)cc2)c1", "Ki", 177),
    ("CC(C)(C)NC(=O)NCC(C)(C)C(CC1CC1)c1ccc2c(cnn2-c2ccc(F)cc2)c1 (stereo not drawn)", "Ki", 1.7),
    ("CC(C)CC(c1ccc2c(cnn2-c2ccc(F)cc2)c1)C(C)(C)CNC(=O)CC(C)(C)c1ccc(Cl)cc1 (stereo not drawn)", "Ki", 8.1),
]
